Reported Binding affinity is given for each of the following binders.
biological target: acetylcholine receptor; test: SPR, AchR immobilized on chip, peptide at 10 uM
Quick reminder: number only, in RU, skip the unit.

In the examples that follow, each entry is paired with its recorded Binding affinity.
binder: RQYQRR [6mer-2-11]
unitsOfMeasure: RU
observed: 121
--
binder: RWYLKR [6mer-2-2]
unitsOfMeasure: RU
observed: 139

Data request, read-out Binding affinity, for KSFRKR [6mer-2-63] 121

Data request, read-out Binding affinity, for KVFRRK [6mer-2-34] 124

Data request, read-out Binding affinity, for RVITKR [6mer-2-43] 146

Data request, read-out Binding affinity, for RQFRKK [6mer-2-33] 142

Data request, read-out Binding affinity, for RSFSKK [6mer-2-19] 135

Data request, read-out Binding affinity, for RHHNRR [6mer-2-1200] 30
